Reported melting point values for the following compounds.

NC1([C@@H]2CCN(c3ccc4c(=O)c(C(=O)O)cn(C5CC5)c4c3OC(F)F)C2)CC1    206 to 207.5 °C
CNC1([C@@H]2CCN(c3ccc4c(=O)c(C(=O)O)cn([C@@H]5C[C@@H]5F)c4c3OC)C2)CC1    213 to 215 °C

// melting point lookup, key: `CNC1([C@@H]2CCN(c3ccc4c(=O)c(C(=O)O)cn(C5CC5)c4c3C)C2)CC1` 190 to 192 °C

---

Form: system (E. coli, NIHJ), quantity (MIC), values below.

CCNC1([C@@H]2CCN(c3ccc4c(=O)c(C(=O)O)cn([C@@H]5C[C@@H]5F)c4c3C)C2)CC1    ≤ 3 ng/mL

Which MIC reading was recorded for the compound `CNC1([C@@H]2CCN(c3ccc4c(=O)c(C(=O)O)cn(C5CC5)c4c3C)C2)CC1` ? ≤ 3 ng/mL

What value of MIC has been reported for the following compound? `CNC1([C@@H]2CCN(c3ccc4c(=O)c(C(=O)O)cn([C@@H]5C[C@@H]5F)c4c3C)C2)CC1` ≤ 3 ng/mL

---

What follows is a record of MIC for E. coli, NIHJ.

O=C(O)c1cn(C2CC2)c2cc(N3CCNCC3)c(F)cc2c1=O [CPFX, ciprofloxacin, reference compound]    ≤ 3 ng/mL
C[C@H]1COc2c(N3CCN(C)CC3)c(F)cc3c(=O)c(C(=O)O)cn1c23 [LVFX, levofloxacin, reference compound]    12 ng/mL

Alright, here's another compound for you.
Form: Entry = `Cc1c(N2CC[C@@H](C3(N)CC3)C2)ccc2c(=O)c(C(=O)O)cn([C@@H]3C[C@@H]3F)c12` | System = E. coli, NIHJ | MIC = ____ ≤ 3 ng/mL

---

Test system: Pr. vulgalis, 08601
Measured Endpoint: MIC (µg/mL)
Report the figure in µg/mL without appending any unit label.

CNC1([C@@H]2CCN(c3ccc4c(=O)c(C(=O)O)cn([C@@H]5C[C@@H]5F)c4c3OC)C2)CC1 [Example 11]    0.012
C[C@H]1COc2c(N3CCN(C)CC3)c(F)cc3c(=O)c(C(=O)O)cn1c23 [LVFX, levofloxacin, reference compound]    0.012
CNC1([C@@H]2CCN(c3ccc4c(=O)c(C(=O)O)cn([C@@H]5C[C@@H]5F)c4c3C)C2)CC1 [Example 10]    0.006
CCNC1([C@@H]2CCN(c3ccc4c(=O)c(C(=O)O)cn([C@@H]5C[C@@H]5F)c4c3C)C2)CC1 [Example 14]    0.012

Lab note: need MIC with Pr. vulgalis, 08601 for entry COc1c(N2CC[C@@H](C3(N)CC3)C2)ccc2c(=O)c(C(=O)O)cn([C@@H]3C[C@@H]3F)c12 [Example 2] , please look it up. 0.012

---

Method Summary: Blood concentration and organ concentration after oral administration (absorption test groups)
Type: in vivo
Experimental Parameters: male, Crj: CD IGS, rat, kidney/serum, fasting rats, 20 mg/kg, kidney, read-out: AUC0-4h tissue/serum ratio Kidney
Measured Endpoint: Kp

# lookup: Kp of `Cc1c(N2CC[C@@H](C3(N)CC3)C2)ccc2c(=O)c(C(=O)O)cn([C@@H]3C[C@@H]3F)c12` 29

Kp for Cc1c(N2CC[C@@H](C3(N)CC3)C2)c(F)cc2c(=O)c(C(=O)O)cn([C@@H]3C[C@@H]3F)c12 [Reference drug 1, reference compound] ? 7.1

---

# collection of MIC values tested on Pr. vulgalis, 08601

Give MIC (Pr. vulgalis, 08601) of the following compound: O=C(O)c1cn(C2CC2)c2cc(N3CCNCC3)c(F)cc2c1=O [CPFX, ciprofloxacin, reference compound] ≤ 3 ng/mL

Observed MIC on Pr. vulgalis, 08601 for `CNC1([C@@H]2CCN(c3ccc4c(=O)c(C(=O)O)cn(C5CC5)c4c3C)C2)CC1` , please. 12 ng/mL

Quick check: MIC on Pr. vulgalis, 08601, item `Cc1c(N2CC[C@@H](C3(N)CC3)C2)ccc2c(=O)c(C(=O)O)cn(C3CC3)c12` ? ≤ 3 ng/mL

Hello, I am looking for reported MIC with Pr. vulgalis, 08601 for Cc1c(N2CC[C@@H](C3(N)CC3)C2)c(F)cc2c(=O)c(C(=O)O)cn([C@@H]3C[C@@H]3F)c12 [Reference drug 1, reference compound] . Could you help? ≤ 3 ng/mL

---

Listed here: compounds with reported MIC for E. coli, NIHJ.

Form entry - test system: E. coli, NIHJ; read-out: MIC; compound: `CNC1([C@@H]2CCN(c3ccc4c(=O)c(C(=O)O)cn([C@@H]5C[C@@H]5F)c4c3OC)C2)CC1` 6 ng/mL

Value wanted: MIC (E. coli, NIHJ) of entry `COc1c(N2CC[C@@H](C3(N)CC3)C2)ccc2c(=O)c(C(=O)O)cn([C@@H]3C[C@@H]3F)c12` ≤ 3 ng/mL

Look up MIC with E. coli, NIHJ for this compound: Cc1c(N2CC[C@@H](C3(N)CC3)C2)c(F)cc2c(=O)c(C(=O)O)cn([C@@H]3C[C@@H]3F)c12 [Reference drug 1, reference compound] ≤ 3 ng/mL

# value lookup — system E. coli, NIHJ, readout MIC, item `Cc1c(N2CC[C@@H](C3(N)CC3)C2)ccc2c(=O)c(C(=O)O)cn(C3CC3)c12` ≤ 3 ng/mL
